# protocol description: Fluorescence titration with Ca2+ in calcium calibration buffer (apparent dissociation constant, FEF)
# Format: binding
# experimental parameters: TP process; read-out: Kd^TP
readout label: pKd
Note: pKd values are expressed as the negative base-10 logarithm of concentration in M.

pKd lookup needed for O=C([O-])CN(CC(=O)[O-])c1ccc(NC(=O)CNc2ccc3cc(-c4nc5ccccc5o4)ccc3c2)cc1OCC(=O)N1CCOCC1.[K+].[K+] [BCa-3°mem] , thanks. 4.02

* * *

# protocol description: Fluorescence titration with Ca2+ in calcium calibration buffer (apparent dissociation constant, FEF)
# Type: binding
# experimental parameters: from fluorescence titration curve, CB; read-out: Dissociation constant Kd
readout label: pKd
Note: pKd values are expressed as the negative base-10 logarithm of concentration in M.

O=C([O-])CN(CC(=O)[O-])c1ccc(NC(=O)CNc2ccc3cc(-c4nc5cc(OCCC[P+](c6ccccc6)(c6ccccc6)c6ccccc6)ccc5o4)ccc3c2)cc1OCCOc1c(F)cccc1N(CC(=O)[O-])CC(=O)[O-].[Br-].[K+].[K+].[K+].[K+] | 5.57
COCCOCCOc1ccc2oc(-c3ccc4cc(NCC(=O)Nc5ccc(N(CC(=O)OCOC(C)=O)CC(=O)OCOC(C)=O)c(OCCOc6ccccc6N(CC(=O)OCOC(C)=O)CC(=O)OCOC(C)=O)c5)ccc4c3)nc2c1 | 6.74

pKd lookup needed for `CC(=O)OCOC(=O)CN(CC(=O)OCOC(C)=O)c1ccc(NC(=O)CNc2ccc3cc(-c4nc5cc(OCCC[P+](c6ccccc6)(c6ccccc6)c6ccccc6)ccc5o4)ccc3c2)cc1OCCOc1c(F)cccc1N(CC(=O)OCOC(C)=O)CC(=O)OCOC(C)=O.[Br-]` , thanks. 5.57
